FYI, the data here is from PubChem BioAssay (NCI).

test system: HCC-2998 colon; assay: NCI-60 one-dose screen, 48 h; conditions: 10 µM
About 83,000 compounds went through this panel and 20% of them were active in at least one assay; those are over-represented in the sample as a whole. Calls of active or inactive are those of the source. The calls were made as follows: active = growth percent below 10; inactive = the rest.
I would appreciate it if you answered using one of these outcomes: class 1 (active), class 0 (inactive)

| molecule | assay-system | class-name |
| --- | --- | --- |
| CC/C(=C(/c1ccc(OCCN(C)C)cc1)c1ccc(OC(=O)CCCCC(=O)c2c(C)[nH]c(/C=C3\N=C(c4ccc[nH]4)C=C3OC)c2C)cc1)c1ccccc1 | HCC-2998 colon | class 0 |
| COc1ccc(-c2cc(/C=C/C(=O)c3cc(OC)c(OC)c(OC)c3)[nH]n2)cc1OC | HCC-2998 colon | class 1 |
| O=C1/C(=C\c2ccc(F)cc2)CN(C(=O)c2ccccc2F)C/C1=C\c1ccc(F)cc1 | HCC-2998 colon | class 1 |
| CCN(CC)Cc1cc(Nc2ccnc3cc(Cl)ccc23)ccc1OC | HCC-2998 colon | class 0 |
| COc1ccc(/C(=C2\O[C@@H]([C@H]3COC(C)(C)O3)[C@H]3OC(C)(C)O[C@@H]23)c2cc(OC)c(OC)c(OC)c2)cc1O | HCC-2998 colon | class 0 |

Query: What did this assay record as the result for `O=S(=O)(Nc1ccccn1)c1ccc(N=Nc2ccc(O)c3ncccc23)cc1` ?
Response: class 0

Query: Record lookup: outcome of this test for `COc1cc(/C=C/C(=O)c2ccc(Cl)cc2)ccc1OS(=O)(=O)c1ccc(C)cc1` ?
Response: class 0

Query: Test call for this molecule, please: CC1CN(Cc2ccccc2)C(=O)NC1=O (centres undefined)
Response: class 0

Query: Tell me the recorded outcome of this test for `COc1ccc2c(c1)C(=O)c1c-2c(OCCN(C)C)nc2cc(OC)c(OC)cc12` .
Response: class 0

* * *

system: UACC-62 melanoma; test: NCI-60 one-dose screen, 48 h (100 = growth as untreated, 0 = no growth, -100 = all killed); settings: 10 µM
This is part of a sample that, as a whole, favours compounds with a hit. Of some 83,000 tested, about 20% had one in any assay.
Classify as follows. Reported growth greater than or equal to 80%: Met. Reported growth below: Not met.

Worked set:
| compound | class-name |
| --- | --- |
| Cc1nc2ccccc2c(N)c1-c1cc(C)c2c(C)nc3ccccc3c2n1 | Met |
| COc1ccc(-c2cc(/C=C3\C(=O)Nc4ccc(Cl)cc43)[nH]n2)cc1OC | Met |
| COc1ccc2c(c1)N(CCO)C1=C(C(=O)OC1)C2c1ccccc1 (stereo unspecified) | Not met |
| COc1cc(/C(=C2/O[C@@H]([C@H]3COC(C)(C)O3)[C@H]3OC(C)(C)O[C@@H]23)c2ccc3ccccc3c2)cc(OC)c1OC | Not met |
| CN1CCC(CNc2cc(C3(C(=O)Nc4cc(C(=O)Nc5ccc(Cl)c(C(F)(F)F)c5)ccc4F)CC3)ncn2)CC1 | Not met |

Query: Could you verify whether the entry `N=c1c2c(-c3ccccc3)c(-c3ccccc3)n(Cc3ccccc3)c2ncn1CCCO` shows growth of no less than 80%?
Response: Not met

Query: Hi, just wondering whether `O=S(=O)(NCCCNc1nccc(-c2c(-c3ccc(F)cc3)nc3sccn23)n1)c1ccc2ccccc2c1` shows growth of 80% or higher.
Response: Not met

Query: Is the recorded value of growth equal to or greater than 80% for this compound? COc1ccc(N2C(=O)C3c4[nH]c5ccc(OCc6ccccc6)cc5c4C4CCC(C(C)C)CC4C3C2=O)cc1 (stereo unspecified)
Response: Met

Query: Decide: growth of `CCN(CC)CCNC(=O)c1ccc(NC(C)=O)cc1` >= 80%?
Response: Met

Query: Is reported growth greater than or equal to 80% here: `O=C(CNC(=O)OCc1ccccc1)NCC(=O)Oc1ccc([N+](=O)[O-])cc1`
Response: Met

Query: Hi team, for `O=C(Nc1cccc(-n2cc(-c3ccncc3)c(-c3ccc(O)c(Cl)c3)n2)c1)Nc1ccc(Cl)c(Cl)c1` , is the recorded growth at or above 80%?
Response: Not met

Query: Given the entry `COc1ccc(-c2nn(-c3cccc(NC(=O)c4ccc(Cl)c(Cl)c4)c3)cc2-c2ccncc2)cc1Cl` , answer whether its growth meets or surpasses 80%.
Response: Met

Query: Say whether COc1ccc(CN2CCC(N3CCCC3=O)c3cc(Cl)ccc32)cc1 (stereo unspecified) shows growth of 80% or more.
Response: Met

Query: Would you say `Cc1cc(N(CCCNc2ccnc3cc(Cl)ccc23)Cc2ccc3c(c2)OCO3)nc(N2CCOCC2)n1` shows growth at minimum 80%?
Response: Not met
